# System tested: HLA-B*15:01
# Test summary: IEDB peptide-MHC binding, purified MHC/competitive/fluorescence; filed as Kd, often an IC50 or EC50 that approximates it; bounds were set here for any values at or beyond the usual limits of such assays
# Condition label: source organism: Escherichia coli E110019
Readout name: Kd

Prompt: Fill in the blank: the reported Kd of "RAFWGQVQK" is ____.
Response: ≥ 20 µM

---

# System tested: HLA-A*01:01
# Test summary: IEDB peptide-MHC binding, purified MHC/direct/fluorescence; filed as Kd, often an IC50 or EC50 that approximates it; bounds were set here for any values at or beyond the usual limits of such assays
# Condition label: source organism: Yellow fever virus
Readout name: Kd

Prompt: Fill in the blank: the reported Kd of "SSARYDVAL" is ____.
Response: ≥ 20 µM

---

# System tested: HLA-B*15:01
# Test summary: IEDB peptide-MHC binding, purified MHC/direct/fluorescence; filed as Kd, often an IC50 or EC50 that approximates it; bounds were set here for any values at or beyond the usual limits of such assays
# Condition label: source organism: Sudan ebolavirus - Maleo (1979)
Readout name: Kd

Prompt: Fill in the blank: the reported Kd of "MHYKLDEVL" is ____.
Response: ≥ 20 µM

---

# System tested: HLA-A*26:01
# Test summary: IEDB peptide-MHC binding, purified MHC/direct/fluorescence; filed as Kd, often an IC50 or EC50 that approximates it; bounds were set here for any values at or beyond the usual limits of such assays
# Condition label: source organism: Influenza A virus (A/swine/Miyagi/5/2003(H1N2))
Readout name: Kd (nM)
Write the answer as a number in nM, unit excluded.

Prompt: Fill in the blank: the reported Kd of "LTITYSSSM" is ____.
Response: 61.8

---

# System tested: HLA-A*01:01
# Test summary: IEDB peptide-MHC binding, purified MHC/direct/fluorescence; filed as Kd, often an IC50 or EC50 that approximates it; bounds were set here for any values at or beyond the usual limits of such assays
# Condition label: source organism: Aggregatibacter actinomycetemcomitans
Readout name: pKd
Notebook: values listed as pKd are -log10 of the concentration (mol/L).

Prompt: Fill in the blank: the reported pKd of "RSEVELCIY" is ____.
Response: 6.96

---

Listing of recorded Kd by entry.
# System tested: HLA-A*02:03
# Test summary: IEDB peptide-MHC binding, purified MHC/competitive/radioactivity; filed as Kd, often an IC50 or EC50 that approximates it; bounds were set here for any values at or beyond the usual limits of such assays
# Condition label: source organism: SARS coronavirus Tor2
Write the answer as a number in nM, unit excluded.

Prompt: Fill in the blank: the reported Kd of "FLFLAWIML" is ____.
Response: 37.7

Continue with the next sequence.
Prompt: Fill in the blank: the reported Kd of "YLLGLSAIM" is ____.
Response: 37.1

---

Listing of recorded Kd by entry.
# System tested: HLA-A*02:06
# Test summary: IEDB peptide-MHC binding, purified MHC/competitive/radioactivity; filed as Kd, often an IC50 or EC50 that approximates it; bounds were set here for any values at or beyond the usual limits of such assays
# Condition label: source organism: Dengue virus 1 Singapore/S275/1990
Write the answer as a number in nM, unit excluded.

Here's what some known entries look like.
Prompt: Fill in the blank: the reported Kd of "FQSHQLWAT" is ____.
Response: 25.6

Prompt: Fill in the blank: the reported Kd of "FSLGLLCISI" is ____.
Response: 2.6

Continue with the next sequence.
Prompt: Fill in the blank: the reported Kd of "SVLLWMASV" is ____.
Response: 15.7

Reference source for all entries: the Immune Epitope Database (IEDB)
